A collection of molecules and their measured log10 of IC50
- experimental target: monkey chymase (Macaca fascicularis)
- Construct: chymase was extracted from homogenized monkey cheek pouch and stomach; from tissue; host or cells: monkey cheek pouch and stomach
- Sequence (P56435 22-247): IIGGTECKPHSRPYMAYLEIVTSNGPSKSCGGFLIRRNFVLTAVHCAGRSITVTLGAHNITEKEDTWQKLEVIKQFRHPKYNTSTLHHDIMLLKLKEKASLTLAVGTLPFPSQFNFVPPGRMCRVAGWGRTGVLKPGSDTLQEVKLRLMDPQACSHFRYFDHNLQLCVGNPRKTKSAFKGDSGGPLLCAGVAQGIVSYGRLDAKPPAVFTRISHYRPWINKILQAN
- assay method text: Monkey chymase inhibitory activity (in vitro, angiotensin I substrate)
- Type: biochemical
- test parameters: chymase purified from monkey cheek pouch and stomach; substrate angiotensin I; 37° C.; read-out: Monkey Chymase Inhibition (IC50:nM)
Hello, just confirming the data are log10 of IC50 with units of nM.

As a guide, the following entries are already answered.
| molecule | log10 of IC50 |
| --- | --- |
| Cc1nc2c(C(=O)N[C@H](C(=O)N3CCC[C@H]3C(=O)NC(Cc3csc4ccccc34)C(=O)C(F)(F)F)C(C)C)cccc2o1 (stereo partly shown) | 2.63 |
| Cc1noc(C)c1C(=O)N[C@H](C(=O)N1CCC[C@H]1C(=O)NC(Cc1cc2ccccc2s1)C(=O)C(F)(F)F)C(C)C (stereo partly shown) | 1.80 |
| CC(C)[C@H](NC(=O)c1ccco1)C(=O)N1CCC[C@H]1C(=O)NC(Cc1csc2ccccc12)C(=O)C(F)(F)F (stereo partly shown) | 2.54 |
| Cc1noc(C)c1C(=O)N[C@H](C(=O)N1CCC[C@H]1C(=O)NC(Cc1cccc(Cl)c1)C(=O)C(F)(F)F)C(C)C (stereo partly shown) | 2.04 |

The molecule CC(C)[C@H](NC(=O)c1ccoc1)C(=O)N1CCC[C@H]1C(=O)NC(Cc1csc2ccccc12)C(=O)C(F)(F)F (stereo partly shown) showed log10 of IC50 equal to 1.86

Data point: Cc1noc(C)c1C(=O)N[C@H](C(=O)N1CCC[C@H]1C(=O)NC(Cc1ccccc1C(F)(F)F)C(=O)C(F)(F)F)C(C)C (stereo partly shown) ; log10 of IC50 = 2.23
